# ASSAY TARGET: T1, monkey CD22 protein (ACROBiosystems, SI2-R52Ha) (monkey (rhesus monkey in paragraph 148), UniProt H9G1X2 18-686)
# T1 construct: extracellular domain; also called monkey CD22-ECD; monkey CD22-ECD-His
# T1 sequence: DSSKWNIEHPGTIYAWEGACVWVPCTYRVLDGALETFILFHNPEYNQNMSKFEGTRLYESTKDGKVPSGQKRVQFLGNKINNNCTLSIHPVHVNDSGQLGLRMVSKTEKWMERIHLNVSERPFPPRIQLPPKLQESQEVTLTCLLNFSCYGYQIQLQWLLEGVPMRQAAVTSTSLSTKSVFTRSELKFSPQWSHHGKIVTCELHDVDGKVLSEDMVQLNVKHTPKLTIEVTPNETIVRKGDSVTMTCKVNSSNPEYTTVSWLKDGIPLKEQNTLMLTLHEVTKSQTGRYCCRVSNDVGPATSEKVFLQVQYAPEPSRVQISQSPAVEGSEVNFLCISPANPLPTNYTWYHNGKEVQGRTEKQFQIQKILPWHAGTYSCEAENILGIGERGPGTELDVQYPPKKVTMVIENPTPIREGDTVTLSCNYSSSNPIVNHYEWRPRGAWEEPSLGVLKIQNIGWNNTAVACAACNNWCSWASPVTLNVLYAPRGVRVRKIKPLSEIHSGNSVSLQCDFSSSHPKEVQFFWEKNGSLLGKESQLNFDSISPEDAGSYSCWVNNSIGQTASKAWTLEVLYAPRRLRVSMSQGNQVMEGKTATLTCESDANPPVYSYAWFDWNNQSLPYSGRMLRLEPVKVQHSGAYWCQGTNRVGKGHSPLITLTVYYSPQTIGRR
# TEST DESCRIPTION: ELISA, monkey CD22-ECD-His coated
# EC50 (read off the curve) values compiled below
OBSERVATION TYPE: EC50 (read off the curve)

binder="F1.17.1 (antibody, human IgG1, kappa, V domains shown, Human-murine chimeric IgG1, kappa) VH: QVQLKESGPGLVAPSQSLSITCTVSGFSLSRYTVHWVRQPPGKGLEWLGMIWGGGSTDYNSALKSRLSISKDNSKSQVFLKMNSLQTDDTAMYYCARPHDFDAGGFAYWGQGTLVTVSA VL: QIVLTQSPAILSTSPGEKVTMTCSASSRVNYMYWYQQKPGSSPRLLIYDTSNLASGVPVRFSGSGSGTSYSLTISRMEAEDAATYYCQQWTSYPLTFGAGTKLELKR" reported_measurement="~0.02 nM"
binder="F1.224.1 (antibody, human IgG1, kappa, V domains shown, Human-murine chimeric IgG1, kappa) VH: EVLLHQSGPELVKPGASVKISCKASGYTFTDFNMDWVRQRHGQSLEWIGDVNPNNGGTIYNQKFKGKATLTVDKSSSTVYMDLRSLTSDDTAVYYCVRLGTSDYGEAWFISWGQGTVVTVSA VL: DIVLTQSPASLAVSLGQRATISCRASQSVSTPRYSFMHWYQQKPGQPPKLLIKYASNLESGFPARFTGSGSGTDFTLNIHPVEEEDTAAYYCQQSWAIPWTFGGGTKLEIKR" reported_measurement="~0.04 nM"
binder="F1.172.13 (antibody, human IgG1, kappa, V domains shown, Human-murine chimeric IgG1, kappa) VH: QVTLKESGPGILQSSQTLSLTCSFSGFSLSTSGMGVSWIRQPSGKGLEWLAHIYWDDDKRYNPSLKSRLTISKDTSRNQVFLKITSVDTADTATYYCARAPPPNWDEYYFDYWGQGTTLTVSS VL: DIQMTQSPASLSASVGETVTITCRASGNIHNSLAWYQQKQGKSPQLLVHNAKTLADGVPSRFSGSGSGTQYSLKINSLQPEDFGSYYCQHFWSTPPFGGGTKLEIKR" reported_measurement="~0.03 nM"
binder="F2.205.9 (antibody, human IgG1, lambda, V domains shown, Human-murine chimeric IgG1, lambda) VH: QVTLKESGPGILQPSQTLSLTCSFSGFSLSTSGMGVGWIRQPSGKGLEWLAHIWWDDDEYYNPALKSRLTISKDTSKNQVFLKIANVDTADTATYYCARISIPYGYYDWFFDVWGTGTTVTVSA VL: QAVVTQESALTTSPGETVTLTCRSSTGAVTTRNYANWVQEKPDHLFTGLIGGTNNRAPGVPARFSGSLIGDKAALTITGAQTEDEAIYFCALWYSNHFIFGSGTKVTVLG" reported_measurement="~0.03 nM"
binder="F2.55.1 (antibody, human IgG1, lambda, V domains shown, Human-murine chimeric IgG1, lambda) VH: QVTLKESGPGILQPSQTLSLTCSFSGFSLSTFPLGVGWIRQPSGKGLEWLAHVWWNDDDYYNPALKSRLTISKDTSNTRVFLSVASVDTAETATYYCARLNWDRWYFDVWGTGTTVTVSS VL: QLVLTQSSSASFSLGASAKLTCTLSSQHSAYTVEWYQQQPLKPPKYVMELKKDGSHSTGDGIPDRFSGSSSGADRYLSISNIQPEDEAIYICGVGDTVKEQFVFGGGTKVTVLG" reported_measurement="~0.1 nM"
binder="F1.250.16 (antibody, human IgG1, kappa, V domains shown, Human-murine chimeric IgG1, kappa) VH: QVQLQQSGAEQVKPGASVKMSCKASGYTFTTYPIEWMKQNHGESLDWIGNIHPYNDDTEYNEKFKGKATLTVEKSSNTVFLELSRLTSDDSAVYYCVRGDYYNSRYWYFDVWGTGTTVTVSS VL: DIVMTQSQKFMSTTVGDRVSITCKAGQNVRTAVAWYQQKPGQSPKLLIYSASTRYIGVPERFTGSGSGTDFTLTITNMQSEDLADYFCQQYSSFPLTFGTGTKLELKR" reported_measurement="~0.02 nM"
binder="HA22-hIgG1 (antibody, V domains shown) VH: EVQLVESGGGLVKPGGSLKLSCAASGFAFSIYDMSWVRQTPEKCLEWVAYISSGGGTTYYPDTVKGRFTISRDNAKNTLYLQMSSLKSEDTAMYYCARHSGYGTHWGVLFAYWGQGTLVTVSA VL: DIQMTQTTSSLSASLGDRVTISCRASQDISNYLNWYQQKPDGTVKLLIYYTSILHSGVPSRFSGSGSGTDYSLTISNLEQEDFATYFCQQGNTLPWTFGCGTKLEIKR" reported_measurement="~0.05 nM"
binder="F1.120.15 (antibody, human IgG1, kappa, V domains shown, Human-murine chimeric IgG1, kappa) VH: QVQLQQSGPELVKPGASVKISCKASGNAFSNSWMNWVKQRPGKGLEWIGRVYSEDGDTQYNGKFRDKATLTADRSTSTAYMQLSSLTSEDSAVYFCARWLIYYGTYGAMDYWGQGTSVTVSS VL: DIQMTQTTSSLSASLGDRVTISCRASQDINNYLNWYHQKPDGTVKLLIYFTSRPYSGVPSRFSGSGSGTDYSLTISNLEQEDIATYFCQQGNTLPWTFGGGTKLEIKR" reported_measurement="~0.2 nM"
binder="F1.105.11 (antibody, human IgG1, kappa, V domains shown, Human-murine chimeric IgG1, kappa) VH: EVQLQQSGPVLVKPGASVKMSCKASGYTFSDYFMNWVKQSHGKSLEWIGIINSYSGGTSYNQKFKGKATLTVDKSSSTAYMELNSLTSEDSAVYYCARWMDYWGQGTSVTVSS VL: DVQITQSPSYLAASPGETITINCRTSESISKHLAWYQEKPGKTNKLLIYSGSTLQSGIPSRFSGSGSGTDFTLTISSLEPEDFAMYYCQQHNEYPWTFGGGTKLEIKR" reported_measurement="~0.1 nM"
